Sourced from paper PMC11173382

# SYSTEM_TESTED: hBCRP (Homo sapiens, UniProt Q9UNQ0)
# Sequence (Q9UNQ0 whole entry): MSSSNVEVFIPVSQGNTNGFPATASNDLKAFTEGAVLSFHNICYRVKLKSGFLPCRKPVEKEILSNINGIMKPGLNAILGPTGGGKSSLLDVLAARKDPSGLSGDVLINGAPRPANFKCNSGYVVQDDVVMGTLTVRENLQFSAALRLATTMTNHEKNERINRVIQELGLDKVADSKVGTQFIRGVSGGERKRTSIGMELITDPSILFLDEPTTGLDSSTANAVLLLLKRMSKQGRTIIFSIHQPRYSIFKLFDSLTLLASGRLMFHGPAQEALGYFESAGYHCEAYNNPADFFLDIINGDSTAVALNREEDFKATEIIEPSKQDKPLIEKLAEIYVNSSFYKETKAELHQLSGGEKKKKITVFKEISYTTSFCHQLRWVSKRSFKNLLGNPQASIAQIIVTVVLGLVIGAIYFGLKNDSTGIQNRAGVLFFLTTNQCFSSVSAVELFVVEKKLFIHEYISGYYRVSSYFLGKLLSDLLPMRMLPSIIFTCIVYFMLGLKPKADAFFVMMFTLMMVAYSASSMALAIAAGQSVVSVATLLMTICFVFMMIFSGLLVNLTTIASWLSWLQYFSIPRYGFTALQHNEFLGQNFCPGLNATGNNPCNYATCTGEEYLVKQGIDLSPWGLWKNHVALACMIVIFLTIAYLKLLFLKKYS
# TEST_SUMMARY: Vesicular transport assay with sf9-BCRP vesicles (3H-ES)
# RUN_CONDITIONS: sf9-BCRP vesicles; 3H-ES 1 µM; 5 min
pIC50: −log10 of the molar value.
QUANTITY_KIND: pIC50

{"ITEM_SMILES": "CC(C)(O)[C@@H]1CC[C@@](C)([C@H]2CC[C@]3(C)[C@@H]2[C@H](O)C[C@@H]2[C@@]4(C)CC[C@H](O)C(C)(C)[C@@H]4CC[C@]23C)O1", "QUANTITY_KIND": "pIC50", "MEASURED_NUMBER": 5.97}

----------
# SYSTEM_TESTED: hOATP1B1 (Homo sapiens, UniProt Q9Y6L6)
# Sequence (Q9Y6L6 whole entry): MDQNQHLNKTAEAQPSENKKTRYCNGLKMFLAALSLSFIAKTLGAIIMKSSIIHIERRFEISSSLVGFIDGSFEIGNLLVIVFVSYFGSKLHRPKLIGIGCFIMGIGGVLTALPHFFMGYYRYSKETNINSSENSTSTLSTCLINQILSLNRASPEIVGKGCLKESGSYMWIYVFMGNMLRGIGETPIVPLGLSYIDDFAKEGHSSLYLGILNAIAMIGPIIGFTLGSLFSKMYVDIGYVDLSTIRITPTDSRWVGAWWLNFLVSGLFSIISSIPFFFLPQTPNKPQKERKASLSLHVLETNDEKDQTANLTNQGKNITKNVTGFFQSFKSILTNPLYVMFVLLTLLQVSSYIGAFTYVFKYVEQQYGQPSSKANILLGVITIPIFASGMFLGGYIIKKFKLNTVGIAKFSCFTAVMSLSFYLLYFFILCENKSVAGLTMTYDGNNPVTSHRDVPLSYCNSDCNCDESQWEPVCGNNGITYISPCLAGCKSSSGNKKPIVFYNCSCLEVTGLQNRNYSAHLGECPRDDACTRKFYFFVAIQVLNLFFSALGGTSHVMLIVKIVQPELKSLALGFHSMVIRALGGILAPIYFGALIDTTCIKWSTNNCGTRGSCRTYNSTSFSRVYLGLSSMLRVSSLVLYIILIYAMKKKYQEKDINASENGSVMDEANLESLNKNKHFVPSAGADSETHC
# TEST_SUMMARY: Substrates uptake assay, HEK293A-OATP1B1 cells (3H-ES)
# Assay type: in vitro ADME
# RUN_CONDITIONS: HEK293A-OATP1B1; 3H-ES 0.1 µM; 2 min
QUANTITY_KIND: IC50 (µM)

{"ITEM_SMILES": "CC(C)(O)[C@@H]1CC[C@@](C)([C@H]2CC[C@]3(C)[C@@H]2[C@H](O)C[C@@H]2[C@@]4(C)CC[C@H](O)C(C)(C)[C@@H]4CC[C@]23C)O1", "QUANTITY_KIND": "IC50", "MEASURED_NUMBER": 13.1}

----------
# SYSTEM_TESTED: UniProt P10635
# Sequence (P10635 whole entry): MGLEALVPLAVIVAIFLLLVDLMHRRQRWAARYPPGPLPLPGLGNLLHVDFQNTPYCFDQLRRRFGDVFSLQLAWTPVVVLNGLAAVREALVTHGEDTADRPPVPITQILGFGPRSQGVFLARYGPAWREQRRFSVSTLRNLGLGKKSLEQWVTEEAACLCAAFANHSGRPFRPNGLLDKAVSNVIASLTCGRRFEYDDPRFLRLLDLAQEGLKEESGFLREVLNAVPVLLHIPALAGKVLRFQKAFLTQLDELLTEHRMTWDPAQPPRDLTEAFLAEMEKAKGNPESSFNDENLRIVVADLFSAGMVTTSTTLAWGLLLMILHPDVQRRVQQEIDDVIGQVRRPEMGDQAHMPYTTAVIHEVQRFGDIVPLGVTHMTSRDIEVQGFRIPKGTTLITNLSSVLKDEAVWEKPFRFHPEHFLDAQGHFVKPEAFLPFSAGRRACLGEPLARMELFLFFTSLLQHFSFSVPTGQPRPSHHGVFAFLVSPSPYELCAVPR
pIC50: −log10 of the molar value.
QUANTITY_KIND: pIC50

{"MOLECULE": "CC(C)(O)[C@@H]1CC[C@@](C)([C@H]2CC[C@]3(C)[C@@H]2[C@H](O)C[C@@H]2[C@@]4(C)CC[C@H](O)C(C)(C)[C@@H]4CC[C@]23C)O1 [PDQ]", "MEASURED_NUMBER": 4.28}

----------
# SYSTEM_TESTED: hOATP1B3 (Homo sapiens, UniProt Q9NPD5)
# Sequence (Q9NPD5 1-702): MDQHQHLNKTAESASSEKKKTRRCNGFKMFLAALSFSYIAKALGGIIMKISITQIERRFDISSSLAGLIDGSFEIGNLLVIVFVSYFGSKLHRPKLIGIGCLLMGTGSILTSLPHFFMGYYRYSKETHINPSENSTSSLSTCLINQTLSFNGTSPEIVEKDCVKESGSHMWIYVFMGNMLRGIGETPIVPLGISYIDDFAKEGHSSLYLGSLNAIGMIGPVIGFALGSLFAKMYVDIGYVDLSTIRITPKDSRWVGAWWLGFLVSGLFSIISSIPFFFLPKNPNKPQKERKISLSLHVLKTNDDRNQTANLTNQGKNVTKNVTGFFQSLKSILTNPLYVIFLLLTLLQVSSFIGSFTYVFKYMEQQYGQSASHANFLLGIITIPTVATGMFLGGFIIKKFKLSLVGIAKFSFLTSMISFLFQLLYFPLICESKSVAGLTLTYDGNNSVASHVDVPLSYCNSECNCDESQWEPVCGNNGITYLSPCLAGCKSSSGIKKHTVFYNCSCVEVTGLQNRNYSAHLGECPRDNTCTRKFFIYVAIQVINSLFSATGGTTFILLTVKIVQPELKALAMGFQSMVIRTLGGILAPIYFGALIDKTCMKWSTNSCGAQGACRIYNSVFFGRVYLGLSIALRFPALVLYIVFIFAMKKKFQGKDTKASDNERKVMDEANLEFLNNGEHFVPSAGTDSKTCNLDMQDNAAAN
# TEST_SUMMARY: Substrates uptake assay, HEK293A-OATP1B3 cells (3H-EG)
# RUN_CONDITIONS: HEK293A-OATP1B3; 3H-EG 1 µM; 2 min
# Experimental: Drug transporters mediate the cellular uptake and efflux of their substrates. Therefore, cell lines overexpressing a drug transporter can be utilized to investigate inhibitors of the transporter by assessing changes in substrate uptake. […] The results were expressed as mean ± standard deviation (SD) and analyzed with GraphPad Prism 8.0 software (CA, USA). […] Statistical significance was calculated using a two-tailed test, and a p value < 0.05 was considered as significant.

{"ITEM_SMILES": "CC(C)(O)[C@@H]1CC[C@@](C)([C@H]2CC[C@]3(C)[C@@H]2[C@H](O)C[C@@H]2[C@@]4(C)CC[C@H](O)C(C)(C)[C@@H]4CC[C@]23C)O1", "IC50": "> 30 µM"}
